Tested on: Mesencephalic dopaminergic neuron cultures
Assay: dopaminergic (3H-dopamine) uptake assay after MPP+ exposure
Type: cell-based
Conditions: Neuron, rat E15 mesencephalic dopaminergic neurons, read-out: EC50 in dopaminergic uptake assays
pEC50: −log10 of the molar value.
Items are presented alongside their recorded pEC50.

CO[C@H]1C[C@@H]2CC[C@@H](C)[C@@](O)(O2)C(=O)C(=O)N2CCCC[C@H]2C(=O)O[C@H]([C@H](C)C[C@@H]2CC[C@@H](OC(=O)C(C)(C)Cc3ccccn3)[C@H](OC)C2)CC(=O)[C@H](C)/C=C(\C)[C@@H](O)[C@@H](OC)C(=O)[C@H](C)C[C@H](C)C2C=CC(/C=C/1C)ON2c1ccccc1	> 6.00
CO[C@H]1C[C@@H]2CC[C@@H](C)[C@@](O)(O2)C(=O)C(=O)N2CCCC[C@H]2C(=O)O[C@H]([C@H](C)C[C@@H]2CC[C@@H](OC(=O)C(C)(CO)CO)[C@H](OC)C2)CC(=O)[C@H](C)/C=C(\C)[C@@H](O)[C@@H](OC)C(=O)[C@H](C)C[C@H](C)/C=C/C=C/C=C/1C [CCI-779, reference compound]	< 6.00
CO[C@H]1C[C@@H]2CC[C@@H](C)[C@@](O)(O2)C(=O)C(=O)N2CCCC[C@H]2C(=O)O[C@H]([C@H](C)C[C@@H]2CC[C@@H](O)[C@H](OC)C2)CC(=O)[C@H](C)/C=C(\C)[C@@H](O)[C@@H](OC)C(=O)[C@H](C)C[C@H](C)/C=C/C=C/C=C/1C	< 6.00

Request: For the compound shown here, "CO[C@H]1C[C@@H]2CC[C@@H](C)[C@@](O)(O2)C(=O)C(=O)N2CCCC[C@H]2C(=O)O[C@H]([C@H](C)C[C@@H]2CC[C@@H](O)[C@H](OC)C2)CC(=O)[C@H](C)/C=C(\C)[C@@H](O)[C@@H](OC)C(=O)[C@H](C)C[C@H](C)[C@@H]2C=C[C@H](/C=C/1C)ON2c1ccccc1" , give the reported pEC50.
Result: > 6.00
